# Experimental protocol: chemical genetic growth profiling, strain panel (AID 1159580);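 note: tested at 20 µM; growth read once vehicle control cultures reached saturation at 30 °C; 1 = growth at the plate median or of vehicle wells; lower values mean less growth of the strain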
# Condition notes: S. cerevisiae deletion strains, growth OD, locus YDL074C, strain BRE1, active compounds read low
The campaign covered roughly 5,500 compounds. About 2,000 (36%) were called active. Another 18% or so got no clear call; they are omitted. Some of the results follow.

Compound	normalized growth
O=C(O)c1ccccc1-c1c2cc(Br)c(=O)cc-2oc2[c]([Hg])c(O)c(Br)cc12	0.866
Cc1cccc(C(=O)O)c1O	1.02
CC(=O)Oc1c(C)cccc1C(=O)O	1
CCC(C)c1cnc(CC(C)C)c(=O)n1O (configuration not stated)	0.876
Nc1nc2ncc(=O)[nH]c2c(=O)[nH]1	1.06
CCCCN1CCCCC1C(=O)Nc1c(C)cccc1C (configuration not stated)	1.01
COc1ccc2c(c1)O[C@H]1c3ccc(OC)cc3OC[C@@H]21	0.911
